# SYSTEM TESTED: human LPA1 (Homo sapiens, UniProt Q92633)
# Sequence (Q92633 whole entry): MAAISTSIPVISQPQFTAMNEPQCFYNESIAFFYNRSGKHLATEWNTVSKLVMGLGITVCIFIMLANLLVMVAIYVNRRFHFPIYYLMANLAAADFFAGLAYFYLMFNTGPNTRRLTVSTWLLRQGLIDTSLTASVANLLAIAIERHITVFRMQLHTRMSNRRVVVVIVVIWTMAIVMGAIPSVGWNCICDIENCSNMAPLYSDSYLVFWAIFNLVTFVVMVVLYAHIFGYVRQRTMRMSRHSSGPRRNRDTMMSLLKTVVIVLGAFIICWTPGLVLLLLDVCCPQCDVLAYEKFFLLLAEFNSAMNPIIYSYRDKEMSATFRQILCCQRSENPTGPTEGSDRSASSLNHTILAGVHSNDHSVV
# MEASUREMENT PROTOCOL: Antagonistic action on human LPA1: inhibition of LPA-stimulated increase in intracellular calcium ion concentration in human LPA1-CHO cells
# PARTICULARS: LPA 100 nM, Fluo-4/FLIPR calcium signal
PARAMETER: IC50
In your response, the unit should come after the numeric value.

In the examples that follow, each entry is paired with its recorded IC50.
COMPOUND	IC50
COc1cc(C(=O)N(CCCc2ccccc2)Cc2nc(C(=O)NS(=O)(=O)CC(C)O)cs2)cc(OC)c1C (stereo not shown) [Example 175]	23 nM
COc1ccc(C2(C(=O)N(CCCc3ccc(C)o3)Cc3nc(C(=O)NS(=O)(=O)N(C)C)c(C)s3)CC2)nc1 [Example 200]	33 nM
CCN(CCO)S(=O)(=O)NC(=O)c1csc(CN(CCCc2ccccc2)C(=O)c2cc(OC)c(C)c(OC)c2)n1 [Example 170]	34 nM
COc1cc(C(=O)N(CCCc2ccccc2F)Cc2nc(C(=O)NS(N)(=O)=O)cs2)cc(OC)c1C [Example 113]	12 nM
COc1cc(C(=O)N(CCCc2ccccc2)Cc2nc(C(=O)NS(N)(=O)=O)cs2)cc(OC)c1C1CC1 [Example 131]	7.2 nM
CNS(=O)(=O)NC(=O)c1csc(CN(CCCc2ccsc2)C(=O)c2cc(OC)c(C)c(OC)c2)n1 [Example 137]	9.9 nM

# input for lookup
State, in one line, measured IC50 of COc1ccc(C2(C(=O)N(CCCc3ccccc3)Cc3nc(C(=O)NS(=O)(=O)N(C)C)c(C)s3)CC2)cc1 [Example 56] 29 nM

* * *

# SYSTEM TESTED: human LPA1 (Homo sapiens, UniProt Q92633)
# Construct: expressed in transfected cells
# MEASUREMENT PROTOCOL: Antagonistic action on human LPA1: inhibition of LPA-stimulated increase in intracellular calcium ion concentration in human LPA1-CHO cells
# Type: cell-based
# PARTICULARS: LPA 100 nM, Fluo-4/FLIPR calcium signal
Can you tell me IC50 for the items I'm about to list?
Numbers only, in nM.

Please review the following examples before continuing.
MOLECULE	IC50 [nM]
COc1ccc([C@@H](O)C(=O)N(CCCc2ccccc2)Cc2nc(C(=O)NS(C)(=O)=O)c(C)s2)c(F)c1	12
COc1cc(C(=O)N(CCCc2ccccc2)Cc2csc(C(=O)NS(N)(=O)=O)n2)cc(OC)c1C	11
COc1cc(C(=O)N(CCCc2ccccc2)Cc2nc(C(=O)NS(N)(=O)=O)co2)cc(OC)c1C	19
CCS(=O)(=O)NC(=O)c1nc(CN(CCCc2ccccc2)C(=O)[C@H](O)c2ccc(OC)cc2)sc1C	65
COc1ccc(C2(C(=O)N(CCCc3cccc(F)c3)Cc3nc(C(=O)NS(=O)(=O)N(C)C)c(C)s3)CC2)nc1	40

Hey, can you go through the list below and give me IC50 for every item?
1. COc1ccc(C(O)C(=O)N(CCCc2ccccc2)Cc2nc(C(=O)NS(=O)(=O)N(C)C)c(C)s2)c(F)c1 (stereo not shown)
2. CNS(=O)(=O)NC(=O)c1nc(CN(CCCc2cccs2)C(=O)[C@H](O)c2ccc(OC)cc2)sc1C

1: 14; 2: 29
